- Test Target: HIV-1 MGRM-A-010 envelope glycoprotein (Env) (HIV-1)
- Assay Info: cell-based or functional assay
Observed Property: IC50 neutralization (ng/mL)
Numbers only, in ng/mL.

- Binder: "PGT-126 (antibody, V domains shown) VH: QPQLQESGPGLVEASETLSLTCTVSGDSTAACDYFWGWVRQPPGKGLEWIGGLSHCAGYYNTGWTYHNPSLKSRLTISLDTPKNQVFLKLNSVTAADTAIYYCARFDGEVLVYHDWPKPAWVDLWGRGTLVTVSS VL: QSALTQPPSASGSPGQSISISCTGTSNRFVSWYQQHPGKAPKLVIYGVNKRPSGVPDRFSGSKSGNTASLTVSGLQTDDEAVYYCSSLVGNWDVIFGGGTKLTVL"
  IC50 neutralization (ng/mL): 3.3

# context switch: different binder, same IC50 neutralization
Value of measured IC50 neutralization for the entry PGT-125 (antibody, V domains shown) VH: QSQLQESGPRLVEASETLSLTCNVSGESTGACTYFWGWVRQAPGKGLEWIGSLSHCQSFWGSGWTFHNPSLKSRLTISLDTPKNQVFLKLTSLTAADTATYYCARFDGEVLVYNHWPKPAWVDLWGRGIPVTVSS VL: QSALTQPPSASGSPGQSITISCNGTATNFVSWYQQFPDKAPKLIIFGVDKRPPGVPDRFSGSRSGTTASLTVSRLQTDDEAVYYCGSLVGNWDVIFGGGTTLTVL : 5.5

Values from patent US20200024330A1
